- assay system: T1, cynomolgus CX3CR1 (cynomolgus, UniProt P49238 1-355 (human entry))
- T1 construct: transiently expressed on HEK293T cells; also called cyCX3CR1; cyno CX3CR1
- T1 chain: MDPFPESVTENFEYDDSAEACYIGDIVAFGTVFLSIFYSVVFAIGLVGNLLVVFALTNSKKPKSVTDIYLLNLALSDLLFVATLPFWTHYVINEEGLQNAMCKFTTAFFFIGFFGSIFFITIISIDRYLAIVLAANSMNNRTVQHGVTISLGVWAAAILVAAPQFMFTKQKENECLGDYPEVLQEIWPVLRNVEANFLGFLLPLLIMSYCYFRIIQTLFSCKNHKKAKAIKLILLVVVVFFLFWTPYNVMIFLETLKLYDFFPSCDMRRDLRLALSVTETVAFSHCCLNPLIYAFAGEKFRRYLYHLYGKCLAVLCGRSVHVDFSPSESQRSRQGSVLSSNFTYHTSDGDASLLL
- test protocol: A647-fractalkine competition FACS, HEK293T cynomolgus CX3CR1
Entries annotated with measured pIC50
Reminder that pIC50 means the negative base-10 logarithm of the concentration expressed in mol/L.

CX3CR1BII018 (VHH, A647 label where used as labeled competitor (Example 14), expressed in E. coli as described for the monovalent VHHs; also called A647-018; A647 labeled CX3CR1BII018) EVQLVESGGGSVQAGESLRLSCAASGSIFSSNAMAWYRQAPGKRRDLVAAINSVGVTKYADSVKGRFTISRDNAKNTVYLQMNSLKPEDTAVYYCTSDPRRGWDTRYWGQGTQVTVSSGGGGSGGGGSGGGGSGGGGSGGGGSGGGGSGGGGSEVQLVESGGGSVQAGESLRLSCAASGSIFSSNAMAWYRQAPGKRRDLVAAINSVGVTKYADSVKGRFTISRDNAKNTVYLQMNSLKPEDTAVYYCTSDPRRGWDTRYWGQGTQVTVSS    10.00

Respond only with pIC50 recorded for CX3CR1BII019 (VHH, expressed in E. coli as described for the monovalent VHHs) EMQLVESGGGSVQAGESLRLSCAASGSIFSSNAMAWYRQAPGKQRDLVALINSVGITKYADSVKGRFTISRDNAKNTVYLQMNSLKPEDTAVYYCTSDGRRGWDTRYWGQGTQVTVSSGGGGSGGGGSGGGGSGGGGSGGGGSGGGGSGGGGSEMQLVESGGGSVQAGESLRLSCAASGSIFSSNAMAWYRQAPGKQRDLVALINSVGITKYADSVKGRFTISRDNAKNTVYLQMNSLKPEDTAVYYCTSDGRRGWDTRYWGQGTQVTVSS 9.09
